Exercise: for every item that follows, state its recorded activity during first hour.
# System: Danio rerio larvae (5 dpf)
# Assay explanation: activity during first hour (no stimuli), difference vs DMSO (percentage points (treated minus DMSO)); higher = more of the behaviour than the DMSO vehicle control
# Assay setup: 10 µM; exposure time: 3 h pre-incubation + 3 h imaging
Structures can show the parent of a compound that is named as a salt.
Answers are plain numbers.

Compound	Endpoint value
Cc1cc2c(s1)Nc1ccccc1N=C2N1CCN(C)CC1 [Olanzapine]	8.05

Batch request: activity during first hour for each of the following compounds.
1. CCOC(=O)[C@H](CCc1ccccc1)N[C@@H](C)C(=O)N1[C@H](C(=O)O)C[C@@H]2CCC[C@@H]21 [Ramipril]
2. COc1c(C)c2c(c(O)c1C/C=C(\C)CCC(=O)O)C(=O)OC2 [Mycophenolic acid]
3. CCCN(CCc1cccs1)[C@H]1CCc2c(O)cccc2C1 [Rotigotine hydrochloride]
4. CN1CCC[C@@H]1Cc1c[nH]c2ccc(CCS(=O)(=O)c3ccccc3)cc12 [Eletriptan hydrobromide]

1. 2.6
2. 2.64
3. -26.8
4. 4.26

Batch request: activity during first hour for each of the following compounds.
1. Nc1cc(N2CCCCC2)nc(N)[n+]1[O-] [Minoxidil]
2. CCCc1nc2c(C)cc(-c3nc4ccccc4n3C)cc2n1Cc1ccc(-c2ccccc2C(=O)O)cc1 [Telmisartan]
3. COc1cc2nc(N3CCN(C(=O)C4COc5ccccc5O4)CC3)nc(N)c2cc1OC (stereo not drawn) [Doxazosin mesylate]

[2.82, -6.28, -2.96]

----------
Exercise: for every item that follows, state its recorded activity during period 15.
# Test system: Danio rerio larvae (5 dpf)
# Assay explanation: activity during period 15 (no stimuli), difference vs DMSO (percentage points (treated minus DMSO)); higher = more of the behaviour than the DMSO vehicle control
# Assay setup: 10 µM; exposure time: 3 h pre-incubation + 3 h imaging
Where a name gives a salt, the structure may show the parent alone.
Give bare numbers.

Compound	activity during period 15
Nc1nc(NC2CC2)c2ncn([C@H]3C=C[C@@H](CO)C3)c2n1 [Abacavir hemisulfate]	-3.3
CCN(Cc1ccncc1)C(=O)C(CO)c1ccccc1 (stereo not drawn) [Tropicamide]	6.31
C[C@]12CC[C@@H]3c4ccc(O)cc4C[C@@H](CCCCCCCCC[S+]([O-])CCCC(F)(F)C(F)(F)F)[C@H]3[C@@H]1CC[C@@H]2O (stereo partly drawn)	4.53
CN(C)CCc1c[nH]c2ccc(Cn3cncn3)cc12 [Rizatriptan benzoate]	-3.72

Batch request: activity during period 15 for each of the following compounds.
1. CN1CCN2c3ncccc3Cc3ccccc3C2C1 (stereo not drawn) [Mirtazapine]
2. OC(c1cc(C(F)(F)F)nc2c(C(F)(F)F)cccc12)C1CCCCN1 (stereo not drawn) [Mefloquine hydrochloride]
3. OCCN1C[C@H](O)[C@@H](O)[C@H](O)[C@H]1CO [Miglitol]
4. Brc1c(NC2=NCCN2)ccc2nccnc12
5. Nc1nc(Cl)nc2c1ncn2[C@@H]1O[C@H](CO)[C@@H](O)[C@@H]1F [Clofarabine]

4.7
-1.13
-4.45
-19.4
-4.3

----------
# Tested on: Danio rerio larvae (5 dpf)
# Assay explanation: activity during first hour (no stimuli), difference vs DMSO (percentage points (treated minus DMSO)); higher = more of the behaviour than the DMSO vehicle control
# Assay setup: 10 µM; exposure time: 3 h pre-incubation + 3 h imaging
Where a name gives a salt, the structure may show the parent alone.
Exercise: for every item that follows, state its recorded activity during first hour.
Numbers only.

A selection of reference data follows.
Compound	Subject of test	activity during first hour
CC(C)c1nc(CN(C)C(=O)N[C@H](C(=O)N[C@@H](Cc2ccccc2)C[C@H](O)[C@H](Cc2ccccc2)NC(=O)OCc2cncs2)C(C)C)cs1 [Ritonavir]	Danio rerio larvae (5 dpf)	-0.488
CC(CCc1ccc(O)cc1)NCCc1ccc(O)c(O)c1 (centres undefined) [Dobutamine hydrochloride]	Danio rerio larvae (5 dpf)	-1.97
COc1cc(Nc2c(C#N)cnc3cc(OCCCN4CCN(C)CC4)c(OC)cc23)c(Cl)cc1Cl [Bosutinib]	Danio rerio larvae (5 dpf)	-16.6

Would you kindly look at the next entry?
Field request: activity during first hour | item: CC1=Nc2ccc(Cl)cc2S(=O)(=O)N1 [Diazoxide]
6.7
